- ASSAY: self-splicing fitness, log relative to wild type (ln ratio); higher = more splicing; Tetrahymena group I intron in knt gene, E. coli kanamycin selection, DiMSum; sequences stand for … in CUCUCU…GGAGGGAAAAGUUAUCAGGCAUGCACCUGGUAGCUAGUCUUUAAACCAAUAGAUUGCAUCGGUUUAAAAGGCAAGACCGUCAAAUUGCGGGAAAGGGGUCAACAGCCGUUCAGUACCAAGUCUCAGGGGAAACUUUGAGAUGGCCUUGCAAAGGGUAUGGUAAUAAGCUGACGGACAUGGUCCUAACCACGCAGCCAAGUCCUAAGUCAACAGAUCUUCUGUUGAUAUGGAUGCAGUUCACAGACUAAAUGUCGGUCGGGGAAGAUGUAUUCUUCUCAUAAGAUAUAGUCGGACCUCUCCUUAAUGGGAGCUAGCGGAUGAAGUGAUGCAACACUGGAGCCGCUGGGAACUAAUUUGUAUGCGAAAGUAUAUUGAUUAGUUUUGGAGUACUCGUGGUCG;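 note: selection with 25 µg/mL kanamycin versus none on LB agar overnight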
- CONDITION LABEL: 37 °C
Lab note: class by self-splicing fitness (ln), see low class = under -2, middle class = from -2 up to -0.9, high class = -0.9 and over

Which category does the recorded self-splicing fitness (ln) put CCUAAGCAAUAUUACGAGUG in?
high class

Kindly state the category for this sequence: CCACAGCAAUAUUACGCUGG
low class

Place this sequence in its band: GAUCAGCAAUAUUACGUCGU
high class

Which bin should I file CGGUAGCAAUAUUACGGACU under?
high class

The entry to classify is AUCUAGCAAUAUUACGUUCC ; which class holds it?
middle class

Band assignment needed for CUGUAGCAAUAUUACGGGGA please.
low class

// return the class label for CUUAAGCAAUAUUACGAUAA
low class

Which class holds UGCAAGCAAUAUUACGUAGC ?
low class

Place this sequence in its band: UAUAAGCAAUAUUACGGUAA
high class

Dear colleague, I would appreciate it if you could identify the bin for AAACAGCAAUAUUACGCUCA and reply at your convenience.
high class

Bin? ACUAAGCAAUAUUACGAACC
middle class

Place this sequence in its band: GCGGAGCAAUAUUACGAUGU
middle class

For the record UCCGAGCAAUAUUACGGUGC , report the class its self-splicing fitness (ln) corresponds to.
low class

Class label required: UGUCAGCAAUAUUACGACGU
middle class

Where would CAUGAGCAAUAUUACGACGU land among the classes by reported self-splicing fitness (ln)?
middle class

Please let me know in which category the item UACCAGCAAUAUUACGUUGA belongs.
high class

Each sequence maps to one class by self-splicing fitness (ln). Which class for GUAAAGCAAUAUUACGGGGA ?
low class

Returns: class label. Input: GAUUAGCAAUAUUACGUCGA
high class

Which band does CCCUAGCAAUAUUACGGACG fall in?
middle class

Which self-splicing fitness (ln) band matches GUUUAGCAAUAUUACGCUAA ?
middle class

Bin? CCGUAGCAAUAUUACGUACC
middle class

Assign a category based on measured self-splicing fitness (ln) for UGAUAGCAAUAUUACGUUUG and give only the class name.
high class

Hi there! Could you help me figure out the category for ACAAAGCAAUAUUACGCACA please?
high class

Form: Item = AAAAAGCAAUAUUACGCCAC ; Class = ?
low class

State the band of GCGCAGCAAUAUUACGUUUA
high class

State the band of AUGAAGCAAUAUUACGACGA
high class

In plain terms, what class is GGUGAGCAAUAUUACGGUUU ?
middle class

Which class does CCUCAGCAAUAUUACGAGUU fall in?
middle class

Each sequence maps to one class by self-splicing fitness (ln). Which class for GUGGAGCAAUAUUACGAUCU ?
low class

Quick check: band for UGAUAGCAAUAUUACGUGUU
low class

Looking at AGACAGCAAUAUUACGUAAA , which class would you pick?
middle class

Form field 'band' for UGCCAGCAAUAUUACGGCAG
middle class

Which class does UUCCAGCAAUAUUACGGCGA fall in?
high class

Textbook exercise: identify the category of the sequence given here, GUACAGCAAUAUUACGGGUG , according to its measured value.
middle class

Which self-splicing fitness (ln) band matches CUUAAGCAAUAUUACGGGGA ?
low class

Note: place this sequence into its band. Item: GCGUAGCAAUAUUACGUUCG
middle class

Into which bin does this sequence go? CUGAAGCAAUAUUACGAGUU
low class

Assign a category based on measured self-splicing fitness (ln) for CAGAAGCAAUAUUACGCUGU and give only the class name.
low class

Lab note: which band did AGGCAGCAAUAUUACGCAAC land in?
middle class

Bin this entry: AGCGAGCAAUAUUACGCGAU
low class

For this sequence, which bin applies? CUGAAGCAAUAUUACGAUAG
high class

Form: Item = UCCUAGCAAUAUUACGAAAU ; Class = ?
high class

Looking at ACAGAGCAAUAUUACGUGUC , which class would you pick?
low class

Please indicate the class for ACUUAGCAAUAUUACGUCUU based on its self-splicing fitness (ln).
high class

Lab note: sort AAAUAGCAAUAUUACGGAAU into the matching self-splicing fitness (ln) band.
low class

Class (by measured self-splicing fitness (ln)) for CCUUAGCAAUAUUACGGCAC
low class

Into which category would you place GCGAAGCAAUAUUACGAACU ?
high class

Place this sequence in its band: CUACAGCAAUAUUACGUUUU
low class

# bin label for UAUCAGCAAUAUUACGGAGU
middle class

Form: Item = AUAAAGCAAUAUUACGCAUU ; Class = ?
high class

Hi there! Could you help me figure out the category for CGUAAGCAAUAUUACGGCCA please?
middle class

Which self-splicing fitness (ln) category applies to ACAAAGCAAUAUUACGCGGA here?
high class

For the record UACUAGCAAUAUUACGUGAU , report the class its self-splicing fitness (ln) corresponds to.
middle class

Dear colleague, I would appreciate it if you could identify the bin for CCCAAGCAAUAUUACGGCUG and reply at your convenience.
low class

Hi there! Could you help me figure out the category for UCGCAGCAAUAUUACGCAGU please?
low class

Into which bin does this sequence go? CGUUAGCAAUAUUACGAUGC
middle class

# bin lookup: classify UUGAAGCAAUAUUACGAGUA by its self-splicing fitness (ln)
high class

Band of CACAAGCAAUAUUACGGUCG ?
high class

Field: class (self-splicing fitness (ln)) — entry: ACGCAGCAAUAUUACGUAAU
low class

Lab log: CCGGAGCAAUAUUACGACGU — assign self-splicing fitness (ln) category
high class

# bin lookup: classify AGAAAGCAAUAUUACGUUGA by its self-splicing fitness (ln)
middle class

Which category fits this record: CUCGAGCAAUAUUACGUACU
low class

Looking at CCAAAGCAAUAUUACGCUAC , which class would you pick?
middle class

Attribution: the supplement of paper PMC7877785
